# target-or-test-system: Neu5Ac(a2-3)Gal(b1-4)GlcNAc(b1-3)Gal(b1-4)GlcNAc(b1-3)Gal(b1-4)GlcNAc
# assay-name: glycan array binding signal (z-score within array); higher = stronger binding
# assay-conditions: glycan notation: IUPAC condensed, linker removed
About 410 targets per protein were measured; listed, in parts, are those with the strongest signals and a random draw of the rest.
Please enter true where glycan array binding signal (z-score) is greater than or equal to -0.5, and false where it is lower.

>>> classification("Epa19 (Candida glabrata) (protein) MGSSHHHHHHSSGLVPRGSHMASSKDPTRFPIGCSPQVLKTQPGLAVKLYSYGHPVPGCSYITYQYPDFPRSGYKKERKLADITGVNGKIDIDLKPNDPCRVLTGHLPSNYNYPDTLTYTNFTMILYGYFQPKVTGYHTFNLEADDLLFMNLGAGNAFDCCKAESTLDNFGNYQSYSLWGSDYAKANITVFLVSGVYYPIRLFYVNRDNNAVIDFSFTTEFDKEKVHDFTSYFFSASDGEQCPGSV")
"true"
>>> classification("SBD (Rhizopus oryzae), P07683 (protein) ASIPSSASVQLDSYNYDGSTFSGKIYVKNIAYSKKVTVVYADGSDNWNNNGNIIAASFSGPISGSNYEYWTFSASVKGIKEFYIKYEVSGKTYYDNNNSANYQVS")
"false"
>>> classification("FimD (Bordetella pertussis) (protein) MPARVISFCGAALAVWAGLAVQPAMAVDPPVDCGRALGLHFWSSASLISDQTPDGTLIGKPVVGRSLLSKSCKVPDDIKEDLSDNHDGEPVDIVLELGSNYKIRPQSYGHPGIVVDLPFGSTEETGIAIYIDFGSSPMQKVGERQWLYPQKGEVLFDVLTINGDNAEVRYQAIKVGPLKRPRKLVLSQFPNLFTYKWVFMRGTSQERVLAQGTIDTDVATSTIDLKTCRYTSQTVSLPIIQRSALTGVGTTLGMTDFQMPFWCYGWPKVSVYMSATKTQTGVDGVALPATGQAAGMASGVGVQLINGKTQQPVKLGLQGKIALPEAQQTESATFSLPMKAQYYQTSTSTSAGKLSVTYAVTLNYD")
"true"
>>> classification("PEB3 (Campylobacter jejuni), Q0PBL7 (protein) MKKIITLFGACALAFSMANADVNLYGPGGPHTALKDIANKYSEKTGVKVNVNFGPQATWFEKAKKDADILFGASDQSALAIASDFGKDFNVSKIKPLYFREAIILTQKGNPLKIKGLKDLANKKVRIVVPEGAGKSNTSGTGVWEDMIGRTQDIKTIQNFRNNIVAFVPNSGSARKLFAQDQADAWITWIDWSKSNPDIGTAVAIEKDLVVYRTFNVIAKEGASKETQDFIAYLSSKEAKEIFKKYGWRE")
"false"

Okay, now this binder:
Please indicate if the recorded glycan array binding signal (z-score) for Mg3lysM (Mycosphaerella graminicola) (protein) APQNPPTSCSAAPQPTGTGSPGTVCGSTTFTNYTVKAGDTLGAIAKQYNSGVCDIAKVNGIDNPDYIKPDQVLSIPANCVTPDNTSCVKPVPVITNTCVLGVGSTYTVKSGDSFSAIATSFNITLASLEARNPQIPNYDLIFPGQVINTPLCPNSVCDSIGTYVIESGDIFYNLAQSNNVTVGQLESLNVNVNVTDIHPGDIIILPHNCHNITASA meets or exceeds -0.5.
true
